protocol-text: Metabolic (microsomal) stability assay, mouse liver microsomes (MLM)
Format: in vitro ADME
applied-conditions: 1 μM test compound, 37° C.
readout-type: MLM [% QH]
Field: value (include unit after the number)

# example entries with known answers
>>> val("Cc1c(=O)n(C23CC(F)(C2)C3)cc2c(N[C@H](C)c3cccc(C(F)F)c3F)ncnc12")
"51 % QH"
>>> val("Cc1nc(N[C@H](C)c2cccc(C(F)F)c2F)c2cn(C3(C(F)F)CC3)c(=O)cc2n1")
"51 % QH"

I have this molecule here, Cc1nc(N[C@H](C)c2cccc(C(F)F)c2F)c2cn(C3(C)CC3)c(=O)c(F)c2n1 , and I need its recorded MLM [% QH].
50 % QH

====

system-tested: protein-protein interaction between SOS1 and KRAS G12D (Homo sapiens (Human))
protocol-text: KRAS::SOS1 AlphaScreen Binding Assay
applied-conditions: Table 20; KRAS::SOS1 AlphaScreen (SOS1 / KRAS G12D)
readout-type: IC50 (nM)
Expressed in nM, but write only the number.

>>> val("Cc1nc(N[C@H](C)c2cccc(C(F)F)c2C)c2cn(C3CCC3)c(=O)cc2n1")
6
>>> val("Cc1nc(N[C@H](C)c2cccc(C(F)F)c2F)c2cn(C3(c4ccccc4)CC3)c(=O)cc2n1")
16
>>> val("C[C@@H](Nc1ncnc2cc(=O)n(C3(C)CC3)cc12)c1cccc(C(F)(F)F)c1")
15
>>> val("Cc1nc(N[C@H](C)c2cccc(C(F)F)c2F)c2cn([C@H]3C[C@@H]3C(F)F)c(=O)c(F)c2n1")
15
>>> val("Cc1nc(N[C@H](C)c2cccc(C(F)(F)F)c2)c2cn(C3(C(F)F)CC3)c(=O)cc2n1")
14
>>> val("CCC1(n2cc3c(N[C@H](C)c4cccc(C(F)F)c4F)nc(C)nc3cc2=O)CC1")
12

I have this molecule here, C[C@@H](Nc1ncnc2cc(=O)n(C3(C)CC3)cc12)c1cccc(C(F)F)c1F , and I need its recorded IC50.
7

I have this molecule here, Cc1nc(N[C@H](C)c2cccc(C(C)(F)F)c2)c2cn(C3(C)CC3)c(=O)cc2n1 , and I need its recorded IC50.
9

====

system-tested: protein-protein interaction between SOS1 and KRAS G12D (Homo sapiens (Human), UniProt Q07889)
Sequence (Q07889 564-1049, stated change not applied): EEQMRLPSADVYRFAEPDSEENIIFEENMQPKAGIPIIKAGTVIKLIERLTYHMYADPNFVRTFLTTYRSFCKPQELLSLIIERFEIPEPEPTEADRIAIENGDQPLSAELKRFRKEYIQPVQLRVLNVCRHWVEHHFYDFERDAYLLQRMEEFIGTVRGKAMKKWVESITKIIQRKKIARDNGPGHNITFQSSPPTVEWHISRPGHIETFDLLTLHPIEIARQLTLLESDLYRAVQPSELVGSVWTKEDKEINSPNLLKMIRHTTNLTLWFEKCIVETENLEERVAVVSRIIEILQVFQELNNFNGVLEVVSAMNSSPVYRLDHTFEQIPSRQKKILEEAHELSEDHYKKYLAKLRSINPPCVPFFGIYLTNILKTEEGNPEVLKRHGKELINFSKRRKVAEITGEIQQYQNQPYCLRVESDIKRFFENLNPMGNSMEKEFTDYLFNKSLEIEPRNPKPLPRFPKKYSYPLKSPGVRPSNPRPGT
protocol-text: KRAS::SOS1 AlphaScreen Binding Assay
applied-conditions: Table 20; KRAS::SOS1 AlphaScreen (SOS1 / KRAS G12D)
readout-type: pIC50
Please note pIC50 is a logarithmic value: minus log10 of concentration in mol/L. Answer with that number alone.

# example entries with known answers
>>> val("Cc1nc(N[C@H](C)c2cccc3c2CCC3(F)F)c2cn(C3(C(F)F)CC3)c(=O)cc2n1")
8.70
>>> val("COCC1(n2cc3c(N[C@H](C)c4cccc(C(F)F)c4F)nc(C)nc3cc2=O)CC1")
8.22
>>> val("Cc1nc(N[C@H](C)c2cccc(C(F)(F)F)c2C)c2cn([C@H]3C[C@H](O)C3)c(=O)cc2n1")
8.30
>>> val("C[C@@H](Nc1ncnc2cc(=O)n(C3(C(F)F)CC3)cc12)c1cccc(C(F)F)c1F")
8.10

I have this compound here, Cc1nc(N[C@H](C)c2cccc(C(F)(F)F)c2)c2cn(C3CCCC3)c(=O)cc2n1 , and I need its recorded pIC50.
7.57

====

// reported RLM [% QH] per item
protocol-text: Metabolic (microsomal) stability assay, rat liver microsomes (RLM)
Type: in vitro ADME
applied-conditions: 1 μM test compound, 37° C.
Expressed in % QH, but write only the number.

>>> val("Cc1c(=O)n([C@@H]2C[C@H]2C(F)F)cc2c(N[C@H](C)c3cccc(C(F)F)c3F)ncnc12 [I-166]")
38
>>> val("Cc1nc(N[C@H](C)c2cccc(C(F)F)c2F)c2cn(C3CC(F)(F)C3)c(=O)cc2n1 [I-13]")
52
>>> val("Cc1nc(N[C@H](C)c2cccc(C(F)F)c2F)c2cn([C@H]3C[C@H](F)C3)c(=O)c(F)c2n1 [I-84]")
29

I have this molecule here, Cc1nc(N[C@H](C)c2cccc(C(F)F)c2F)c2cn([C@H]3C[C@@H]3C(F)F)c(=O)c(F)c2n1 [I-83] , and I need its recorded RLM [% QH].
42

====

// reported MLM [% QH] per item
protocol-text: Metabolic (microsomal) stability assay, mouse liver microsomes (MLM)
Format: in vitro ADME
applied-conditions: 1 μM test compound, 37° C.

# example entries with known answers
>>> val("Cc1nc(N[C@H](C)c2cccc(C(F)(F)C(C)(C)O)c2F)c2cn(C34CC(C3)C4)c(=O)c(F)c2n1 [I-90]")
"<24 % QH"
>>> val("Cc1nc(N[C@H](C)c2cccc(C(F)F)c2F)c2cn(C3CC(F)(F)C3)c(=O)cc2n1 [I-13]")
"<24 % QH"

I have this compound here, Cc1nc(N[C@H](C)c2cccc(C(C)(F)F)c2)c2cn(C34CC(F)(C3)C4)c(=O)cc2n1 [I-51] , and I need its recorded MLM [% QH].
<24 % QH

====

system-tested: protein-protein interaction between SOS1 and KRAS G12D (Homo sapiens (Human))
protocol-text: KRAS::SOS1 AlphaScreen Binding Assay
applied-conditions: Table 20; KRAS::SOS1 AlphaScreen (SOS1 / KRAS G12D)
readout-type: pIC50
Please note pIC50 is a logarithmic value: minus log10 of concentration in mol/L. Answer with that number alone.

# example entries with known answers
>>> val("Cc1nc(N[C@H](C)c2cccc(C(F)F)c2F)c2cn(C3(C)CC3)c(=O)c(F)c2n1")
8.05
>>> val("Cc1nc(N[C@H](C)c2cccc(C(F)(F)F)c2C)c2cn([C@H]3C[C@@H](O)C3)c(=O)cc2n1")
7.92

I have this compound here, C[C@@H](Nc1ncnc2cc(=O)n([C@H]3C[C@H](F)C3)cc12)c1cccc(C(F)F)c1F , and I need its recorded pIC50.
8.22

I have this compound here, Cc1nc(N[C@H](C)c2cccc(C(F)(F)F)c2F)c2cn(C3(C(F)F)CC3)c(=O)cc2n1 , and I need its recorded pIC50.
8.10

I have this compound here, C[C@@H](Nc1ncnc2c(F)c(=O)n(C3(C(F)F)CC3)cc12)c1cccc(C(F)F)c1F , and I need its recorded pIC50.
8.15

====

system-tested: protein-protein interaction between SOS1 and KRAS G12D (Homo sapiens (Human), UniProt Q07889)
protocol-text: KRAS::SOS1 AlphaScreen Binding Assay
applied-conditions: Table 20; KRAS::SOS1 AlphaScreen (SOS1 / KRAS G12D)
readout-type: pIC50
Please note pIC50 is a logarithmic value: minus log10 of concentration in mol/L. Answer with that number alone.

>>> val("Cc1nc(N[C@H](C)c2cccc(C(F)(F)C(C)(C)O)c2F)c2cn(C3(C)CC3)c(=O)c(F)c2n1")
8.70
>>> val("Cc1nc(N[C@H](C)c2cccc(C(F)(F)C(C)(C)O)c2F)c2cn(C34CC(F)(C3)C4)c(=O)c(F)c2n1")
8.40
>>> val("Cc1nc(N[C@H](C)c2cccc(C(F)(F)F)c2C)c2cn(C3(C(F)(F)F)CC3)c(=O)cc2n1")
7.74
>>> val("C[C@@H](Nc1ncnc2cc(=O)n(C34CC(F)(C3)C4)cc12)c1cccc(C(F)F)c1F")
8.15

I have this molecule here, Cc1nc(N[C@H](C)c2cccc(CC(F)(F)F)c2)c2cn(C3(C(F)F)CC3)c(=O)cc2n1 , and I need its recorded pIC50.
7.52

I have this molecule here, Cc1nc(N[C@H](C)c2cccc3c2OCC3(F)F)c2cn(C3(C(F)F)CC3)c(=O)cc2n1 , and I need its recorded pIC50.
8.40

I have this molecule here, Cc1nc(N[C@H](C)c2cccc(C(F)F)c2F)c2cn(C3(C(F)F)CC3)c(=O)c(F)c2n1 , and I need its recorded pIC50.
8.30

I have this molecule here, Cc1nc(N[C@H](C)c2cccc(C(C)(F)F)c2F)c2cn(C34CC(F)(C3)C4)c(=O)cc2n1 , and I need its recorded pIC50.
7.82

I have this molecule here, Cc1nc(N[C@H](C)c2cccc(C(F)F)c2F)c2cn(C3(CF)CC3)c(=O)c(F)c2n1 , and I need its recorded pIC50.
8.22

I have this molecule here, Cc1nc(N[C@H](C)c2cccc(C(F)F)c2F)c2cn([C@]3(C(F)(F)F)CCOC3)c(=O)c(F)c2n1 , and I need its recorded pIC50.
8.05

I have this molecule here, Cc1nc(N[C@H](C)c2cccc(C(F)(F)C(C)(C)O)c2F)c2cn(C34CC(C3)C4)c(=O)c(F)c2n1 , and I need its recorded pIC50.
8.40

====

// reported IC50 per item
system-tested: protein-protein interaction between SOS1 and KRAS G12D (Homo sapiens (Human))
protocol-text: KRAS::SOS1 AlphaScreen Binding Assay
applied-conditions: Table 20; KRAS::SOS1 AlphaScreen (SOS1 / KRAS G12D)
Expressed in nM, but write only the number.

# example entries with known answers
>>> val("Cc1nc(N[C@H](C)c2cccc(C(F)(F)F)c2C)c2cn([C@H]3C[C@](O)(C(F)(F)F)C3)c(=O)cc2n1 [I-47]")
33
>>> val("C[C@@H](Nc1ncnc2cc(=O)n(C34CC(C3)C4)cc12)c1cccc(C(F)F)c1F [I-70]")
7
>>> val("Cc1nc(N[C@H](C)c2cccc(C(F)(F)F)c2C)c2cn(C3(C)CC3)c(=O)cc2n1 [I-37]")
5

I have this molecule here, Cc1nc(N[C@H](C)c2cccc(C(C)(F)F)c2F)c2cn(C3(CF)CC3)c(=O)cc2n1 [I-53] , and I need its recorded IC50.
4
